Provide the reported IC50 of each item.
Tested on: Candida albicans
experimental_protocol: Antifungal activity against Candida albicans
Type: functional, organism-based

Study these solved cases before continuing.
CC(C)=C[C@@H]1[C@H]2CC[C@@H]3[C@@]4(C)C=CC(C)(C)[C@@H]4CC[C@@]3(C)[C@]2(C(=O)O)CC[C@@]12CC(O)OC2=O (mixture of isomers): > 10 µg/mL
CO[C@@H]1C[C@@]2(CC[C@]3(C(=O)O)[C@H](CC[C@@H]4[C@@]5(C)C=CC(C)(C)[C@@H]5CC[C@]43C)[C@H]2C=C(C)C)C(=O)O1: > 10 µg/mL
Clc1ccc(COC(Cn2ccnc2)c2ccc(Cl)cc2Cl)c(Cl)c1.O=[N+]([O-])O (stereo not given) [MICONAZOLE NITRATE]: 0.16 µg/mL

List IC50 for every entry below, keeping the order given.
1. C=C(C)[C@@H]1CC[C@]2(C(=O)O)CC[C@]3(C(=O)O)[C@H](CC[C@@H]4[C@@]5(C)C=CC(C)(C)[C@@H]5CC[C@]43C)[C@@H]12
2. CO[C@H]1C[C@@]2(CC[C@]3(C(=O)O)[C@H](CC[C@@H]4[C@@]5(C)C=CC(C)(C)[C@@H]5CC[C@]43C)[C@H]2C=C(C)C)C(=O)O1

Result:
["> 10 µg/mL", "> 10 µg/mL"]
